assay-overview: qHTS RealTime-Glo MT Cell Viability Assay in HepG2 cells - 32 hour (AID 1224877); note: nearly all actives have a fitted effect of over 55% in size
applied-conditions: RealTime-Glo luminescence; series mostly up to 76.8 µM
Inconclusive results are not listed. Active and inactive are the calls of the source. Calls come from the whole dose curve; as a rule, active = well fitted cell-killing curve with a large enough effect in the repeat runs; inconclusive = weak or mixed curves; inactive = flat fitted curve, though single readings scatter.
quantity-measured: outcome

Worked set:
compound="CC(=O)C1CCOC1=O (stereo not given)" observed=inactive
compound=FC(F)(F)c1ccc(Cl)cc1 observed=inactive
compound=ClCCOCCCl observed=inactive
compound=O=C(O)CCCc1ccc(N(CCCl)CCCl)cc1 observed=inactive
compound=Nc1cc(Cl)cc(Cl)c1 observed=inactive

### Prompt Query (compound): `Cc1cccc(C)c1N` ; field requested: outcome
### Response inactive

### Prompt Query (compound): `CN(C)NC(=O)CCC(=O)O` ; field requested: outcome
### Response inactive

### Prompt Query (compound): `Cc1cc(O)ccc1Cl` ; field requested: outcome
### Response inactive

### Prompt Query (compound): `O=C/C=C/c1ccccc1` ; field requested: outcome
### Response inactive

### Prompt Query (compound): `Sc1ccccc1` ; field requested: outcome
### Response inactive

====

target-desc: Estrogen receptor beta (Homo sapiens)
assay-overview: qHTS assay to identify small molecule antagonists of the estrogen receptor beta (ER-beta) signaling pathway (AID 1259378)
applied-conditions: ER-beta-UAS-bla HEK293T, beta-lactamase FRET ratio, 16 h; series mostly up to 92.4 µM
Inconclusive results are not listed. Active and inactive are the calls of the source. The call rests on the fitted dose curve; in most records, active means well fitted inhibition curve with a large enough effect in the signal ratio in the repeat runs (not every such curve was filed as active); inconclusive means weak or mixed curves, or effect the other way; inactive means no such curve, though single readings can be large or run the other way; the % refers to the signal ratio.
quantity-measured: outcome

Worked set:
compound=Cc1cccc(C)c1NC(=O)CN1CCCC1=O target_desc="Estrogen receptor beta (Homo sapiens)" observed=inactive
compound=N#CN=C(N)N target_desc="Estrogen receptor beta (Homo sapiens)" observed=inactive
compound=COc1nc(NC(C)C)nc(NC(C)C)n1 target_desc="Estrogen receptor beta (Homo sapiens)" observed=inactive
compound=Cc1cccc(C)c1N target_desc="Estrogen receptor beta (Homo sapiens)" observed=inactive
compound="CC12CC1(C)C(=O)N(c1cc(Cl)cc(Cl)c1)C2=O (stereo not drawn)" target_desc="Estrogen receptor beta (Homo sapiens)" observed=inactive

### Prompt Return outcome measured with Estrogen receptor beta (Homo sapiens) given this compound: `COP(=S)(OC)SCN1C(=O)c2ccccc2C1=O`
### Response inactive

### Prompt Return outcome measured with Estrogen receptor beta (Homo sapiens) given this compound: Cc1cc(Cl)ccc1OC(C)C(=O)O (stereo not drawn)
### Response inactive

### Prompt Return outcome measured with Estrogen receptor beta (Homo sapiens) given this compound: `ClCCOCCCl`
### Response inactive

====

target-desc: Peroxisome proliferator-activated receptor gamma (Homo sapiens) (UniProt P37231)
Sequence (P37231 whole entry, looked up): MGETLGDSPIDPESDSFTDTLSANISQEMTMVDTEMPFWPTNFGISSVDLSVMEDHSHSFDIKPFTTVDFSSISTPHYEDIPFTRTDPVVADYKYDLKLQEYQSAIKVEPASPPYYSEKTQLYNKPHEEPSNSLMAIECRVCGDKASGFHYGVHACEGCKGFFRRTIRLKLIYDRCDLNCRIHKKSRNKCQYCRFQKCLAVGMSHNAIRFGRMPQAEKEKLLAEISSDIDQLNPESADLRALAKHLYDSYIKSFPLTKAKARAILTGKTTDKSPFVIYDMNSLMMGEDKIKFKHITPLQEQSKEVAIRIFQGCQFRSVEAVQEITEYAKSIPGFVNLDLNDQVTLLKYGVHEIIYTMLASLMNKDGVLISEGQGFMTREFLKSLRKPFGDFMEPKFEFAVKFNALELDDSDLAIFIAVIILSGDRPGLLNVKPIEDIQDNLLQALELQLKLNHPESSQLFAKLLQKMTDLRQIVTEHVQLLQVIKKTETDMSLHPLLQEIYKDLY
assay-overview: qHTS assay to identify small molecule agonists of the peroxisome proliferator-activated receptor gamma (PPARg) signaling pathway (AID 743094)
applied-conditions: HEK293H PPARg-UAS-bla, beta-lactamase FRET ratio, 17 h; series mostly up to 57 µM
Results filed as inconclusive are left out. Activity calls are given as the source filed them. Calls come from the whole dose curve; as a rule, active = well fitted activation curve with a large enough effect in the signal ratio in the repeat runs (not every such curve was filed as active); inconclusive = weak or mixed curves, or effect the other way; inactive = no such curve, though single readings can be large or run the other way; the % refers to the signal ratio.
quantity-measured: outcome

smi=Cc1cc(O)ccc1Cl target_desc="Peroxisome proliferator-activated receptor gamma (Homo sapiens) (UniProt P37231)" quantity_measured=outcome observed=inactive
smi=O=[N+]([O-])c1ccc(Cl)c(Cl)c1 target_desc="Peroxisome proliferator-activated receptor gamma (Homo sapiens) (UniProt P37231)" quantity_measured=outcome observed=inactive
smi=CNC(=O)O/N=C/C(C)(C)SC target_desc="Peroxisome proliferator-activated receptor gamma (Homo sapiens) (UniProt P37231)" quantity_measured=outcome observed=inactive
